Just for reference, patent US9346761B2 is where these values come from.

The compounds below have reported IC50 for Human CARM1 (PRMT4) (Homo sapiens, UniProt Q86X55).
recordedEndpoint: IC50

1. NCCN(Cc1c[nH]nc1-c1ccc(F)cc1)C1CC1 ... > 10 µM
2. CNCCN(C)Cc1c[nH]nc1-c1ccccc1NS(C)(=O)=O ... > 10 µM
3. CNCCN(C)Cc1c[nH]nc1-c1ccccc1F ... 3.01 to 10 µM
4. CCNC(=O)c1ccc(-c2n[nH]cc2CN(C)CCN)cc1 ... 1.01 to 3 µM

====

compounds and their reported IC50
target: Full-length human PRMT8 (Homo sapiens, UniProt Q9NR22); construct: Full-length human PRMT8 (NM_019854.4) isoform 1 transcript clone; assay: PRMT8 biochemical assay (3H-SAM Flashplate, peptide substrate)
Sequence (Q9NR22 whole entry, canonical isoform): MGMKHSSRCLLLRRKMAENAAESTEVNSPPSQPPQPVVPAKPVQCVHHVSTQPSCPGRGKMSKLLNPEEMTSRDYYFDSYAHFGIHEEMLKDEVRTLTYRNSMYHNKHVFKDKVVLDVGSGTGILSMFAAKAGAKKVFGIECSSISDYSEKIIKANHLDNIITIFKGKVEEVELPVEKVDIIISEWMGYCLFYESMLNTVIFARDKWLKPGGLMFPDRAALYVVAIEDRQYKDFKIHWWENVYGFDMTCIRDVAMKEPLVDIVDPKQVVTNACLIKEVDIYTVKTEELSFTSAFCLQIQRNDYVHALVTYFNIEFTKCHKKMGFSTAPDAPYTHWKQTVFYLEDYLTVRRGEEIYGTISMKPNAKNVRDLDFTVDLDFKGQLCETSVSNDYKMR
recordedEndpoint: IC50

1) COc1ccc(-c2n[nH]cc2CN(C)CCN)c(C(F)(F)F)c1 ... 3010 to 10000 nM
2) CNCCN(C)Cc1cnn(CCCC(O)CO)c1-c1ccc(F)cc1 (stereo not shown) ... 3010 to 10000 nM
3) CNCCN(C)Cc1c[nH]nc1-c1ccc(CC#N)cc1 ... 101 to 1000 nM
4) COc1cccc(-c2n[nH]cc2CN(C)CCN)c1 ... 101 to 1000 nM
5) CN(CCN)Cc1n[nH]cc1-c1ccc(OC(F)(F)F)cc1 ... 101 to 1000 nM
6) COc1ccc(Cl)cc1-c1n[nH]cc1CN(C)CCN ... 3010 to 10000 nM
7) Cc1cccc(-c2n[nH]cc2CN(C)CCN)c1 ... 101 to 1000 nM
8) CNCCN(C)Cc1cn(CC2CCOCC2)nc1-c1ccc(F)cc1 ... > 10000 nM
9) CN(CCN)Cc1c[nH]nc1-c1cccc(Cl)c1F ... 101 to 1000 nM
10) CNCCN(C)Cc1c[nH]nc1-c1ccc(OC)c(F)c1 ... 101 to 1000 nM
11) CN(CCN1CCC1)Cc1c[nH]nc1-c1ccc(C#N)cc1 ... 3010 to 10000 nM
12) CCN(C)C(=O)c1ccc(-c2n[nH]cc2CN(C)CCN)cc1 ... 1010 to 3000 nM
13) CN(CCN)Cc1c[nH]nc1-c1ccc(C(F)(F)F)cc1C(F)(F)F ... 3010 to 10000 nM
14) CN(CCN)Cc1n[nH]cc1-c1ccc(Oc2ccccc2)cc1 ... 101 to 1000 nM
15) CNCCN(C)Cc1cnn(C(C)C)c1-c1ccc(F)cc1 ... > 10000 nM
16) CN(CCN)Cc1c[nH]nc1-c1ccc(C(C)(C)C)cc1 ... 101 to 1000 nM
